meta.source: patent US7709471B2

experimental.system: recombinant Plk1 (Homo sapiens, UniProt P53350)
Sequence (P53350 whole entry): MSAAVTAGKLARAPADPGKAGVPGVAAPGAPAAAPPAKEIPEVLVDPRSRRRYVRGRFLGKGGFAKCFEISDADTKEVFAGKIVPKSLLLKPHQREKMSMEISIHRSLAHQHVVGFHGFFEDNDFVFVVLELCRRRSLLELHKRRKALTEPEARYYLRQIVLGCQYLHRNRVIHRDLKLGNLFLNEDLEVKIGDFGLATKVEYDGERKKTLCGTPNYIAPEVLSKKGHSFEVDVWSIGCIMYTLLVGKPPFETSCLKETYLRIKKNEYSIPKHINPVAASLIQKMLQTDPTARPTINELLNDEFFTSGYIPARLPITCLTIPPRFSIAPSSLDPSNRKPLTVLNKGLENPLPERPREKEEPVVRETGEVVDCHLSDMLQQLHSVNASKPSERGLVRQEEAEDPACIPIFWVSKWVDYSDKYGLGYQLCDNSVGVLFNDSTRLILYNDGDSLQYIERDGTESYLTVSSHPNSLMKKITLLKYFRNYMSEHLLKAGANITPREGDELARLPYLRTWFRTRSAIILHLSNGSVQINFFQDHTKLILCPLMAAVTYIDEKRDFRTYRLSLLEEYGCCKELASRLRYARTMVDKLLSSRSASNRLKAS
experimental.protocol: In Vitro Plk1 Enzyme Assay (SPA, GST-Cdc25C phosphorylation)
Type: biochemical
measurement.conditions: ATP 64 nM, 90 minutes, read-out: IC50 (Plk1 enzyme inhibition)

compound | experimental.system | IC50
COC(=O)[C@H]1CC[C@@H](NC(=O)c2ccc(Nc3ncc4c(n3)N(C3CCCC3)CCC(=O)N4C)c(OC)c2)C1 [Example 65] | recombinant Plk1 (Homo sapiens, UniProt P53350) | < 1000 nM
COc1cc(C(=O)NC[C@@H]2CCCN2CC2CC2)ccc1Nc1ncc2c(n1)N(C1CCCC1)CCC(=O)N2C [Example 82] | recombinant Plk1 (Homo sapiens, UniProt P53350) | < 300 nM
COCCOc1cc(C(=O)NC2CCN(C)CC2)ccc1Nc1ncc2c(n1)N(C1CCCC1)CCC(=O)N2C [Example 195] | recombinant Plk1 (Homo sapiens, UniProt P53350) | < 1000 nM
CN1C(=O)CCN(C2CCCC2)c2nc(Nc3ccc(Cl)c(CO)c3)ncc21 [Example 131] | recombinant Plk1 (Homo sapiens, UniProt P53350) | < 1000 nM
CN1CCC(NC(=O)c2ccc(Nc3ncc4c(n3)N(C3CCCC3)CCC(=O)N4C)c(OC(F)(F)F)c2)CC1 [Example 199] | recombinant Plk1 (Homo sapiens, UniProt P53350) | < 100000 nM
CCCCc1ccccc1Nc1ncc2c(n1)N(C1CCCC1)CCC(=O)N2C [Example 151] | recombinant Plk1 (Homo sapiens, UniProt P53350) | < 100000 nM
COc1cc(C(=O)N[C@H]2CCNC2)ccc1Nc1ncc2c(n1)N(C1CCCC1)CCC(=O)N2C [Example 56] | recombinant Plk1 (Homo sapiens, UniProt P53350) | < 300 nM
COc1cc(C(=O)NCCCN2CCOCC2)ccc1Nc1ncc2c(n1)N(C1CCCC1)CCC(=O)N2C [Example 25] | recombinant Plk1 (Homo sapiens, UniProt P53350) | < 300 nM
CCN1CCC(=O)N(C)c2cnc(Nc3ccc(C(=O)NC4CCN(C)CC4)cc3OC)nc21 [Example 210] | recombinant Plk1 (Homo sapiens, UniProt P53350) | < 300 nM
O=C1CCN(c2ccccc2)c2nc(Nc3ccc(C(=O)NCCN4CCOCC4)cc3)ncc2N1 [Example 249] | recombinant Plk1 (Homo sapiens, UniProt P53350) | < 100000 nM
CCN(CC)CCCC(C)NC(=O)c1ccc(Nc2ncc3c(n2)N(C2CCCC2)CCC(=O)N3C)c(OC)c1 (stereo not shown) [Example 17] | recombinant Plk1 (Homo sapiens, UniProt P53350) | < 300 nM
CN1C(=O)CCN(C2CCCC2)c2nc(Nc3ccccc3S(C)(=O)=O)ncc21 [Example 149] | recombinant Plk1 (Homo sapiens, UniProt P53350) | < 100000 nM
COc1cc(C(=O)NC2CN3CCC2CC3)ccc1Nc1ncc2c(n1)N(C1CCCC1)CCC(=O)N2C (stereo not shown) [Example 22] | recombinant Plk1 (Homo sapiens, UniProt P53350) | < 300 nM
CN1C(=O)CCN(C2CCCC2)c2nc(Nc3ccccc3Oc3ccc(C(C)(C)C)cc3)ncc21 [Example 153] | recombinant Plk1 (Homo sapiens, UniProt P53350) | < 100000 nM
COc1cc(C(=O)NC2CN3CCC2CC3)ccc1Nc1ncc2c(n1)N(C(C)C)CCC(=O)N2C (stereo not shown) [Example 206] | recombinant Plk1 (Homo sapiens, UniProt P53350) | < 300 nM
COc1cc(C(=O)NC[C@@H]2CCNC2)ccc1Nc1ncc2c(n1)N(C1CCCC1)CCC(=O)N2C [Example 47] | recombinant Plk1 (Homo sapiens, UniProt P53350) | < 300 nM
CC(C)N1CCC(=O)N(C)c2cnc(Nc3ccc(C(=O)NCC(C)(C)CN(C)C)cc3)nc21 [Example 222] | recombinant Plk1 (Homo sapiens, UniProt P53350) | < 300 nM
COCCN1CC[C@@H](NC(=O)c2ccc(Nc3ncc4c(n3)N(C3CCCC3)CCC(=O)N4C)c(OC)c2)C1 [Example 328] | recombinant Plk1 (Homo sapiens, UniProt P53350) | < 300 nM
O=C1CCN(C2CCCC2)c2nc(Nc3ccc(C(=O)NCCN4CCOCC4)cc3Cl)ncc2N1 [Example 257] | recombinant Plk1 (Homo sapiens, UniProt P53350) | < 100000 nM
CN1C(=O)CCN(C2CCCC2)c2nc(Nc3ccc(N4CCOCC4)cc3)ncc21 [Example 121] | recombinant Plk1 (Homo sapiens, UniProt P53350) | < 100000 nM
COc1cc(C(=O)NCCCNc2ccccn2)ccc1Nc1ncc2c(n1)N(C1CCCC1)CCC(=O)N2C [Example 38] | recombinant Plk1 (Homo sapiens, UniProt P53350) | < 1000 nM
COCCN1CCC(NC(=O)c2ccc(Nc3ncc4c(n3)N(C3CCCC3)CC(C)(C)C(=O)N4C)c(OC)c2)CC1 [Example 244] | recombinant Plk1 (Homo sapiens, UniProt P53350) | < 1000 nM
COc1cc(C(=O)NC2CCN(C)CC2)ccc1Nc1ncc2c(n1)N(Cc1ccoc1)CCC(=O)N2C [Example 231] | recombinant Plk1 (Homo sapiens, UniProt P53350) | < 300 nM
COc1cc(C(=O)NCC(C)(C)CN)ccc1Nc1ncc2c(n1)N(C1CCCC1)CCC(=O)N2C [Example 46] | recombinant Plk1 (Homo sapiens, UniProt P53350) | < 300 nM
CNC(=O)c1ccc(Nc2ncc3c(n2)N(C2CCCC2)CCC(=O)N3C)cc1 [Example 102] | recombinant Plk1 (Homo sapiens, UniProt P53350) | < 300 nM
O=C1CCN(c2ccccc2)c2nc(Nc3ccc(C(=O)NCCN4CCOCC4)cc3Cl)ncc2N1 [Example 247] | recombinant Plk1 (Homo sapiens, UniProt P53350) | < 100000 nM
COc1cc(C(=O)NC2CCCCC2)ccc1Nc1ncc2c(n1)N(CCN1CCOCC1)CCC(=O)N2C [Example 277] | recombinant Plk1 (Homo sapiens, UniProt P53350) | < 100000 nM
COc1cc(C(=O)NC2CCN(C)CC2)ccc1Nc1ncc2c(n1)N(Cc1c(C)noc1C)CCC(=O)N2C [Example 273] | recombinant Plk1 (Homo sapiens, UniProt P53350) | < 100000 nM
COc1cc(C(=O)NCCC2CCCCN2C)ccc1Nc1ncc2c(n1)N(C1CCCC1)CCC(=O)N2C (stereo not shown) [Example 85] | recombinant Plk1 (Homo sapiens, UniProt P53350) | < 300 nM
CN1C(=O)CCN(C2CCCC2)c2nc(Nc3cccc(C(=O)c4ccccc4)c3)ncc21 [Example 169] | recombinant Plk1 (Homo sapiens, UniProt P53350) | < 100000 nM
CCN(CC)C1CCC(NC(=O)c2ccc(Nc3ncc4c(n3)N(C3CCCC3)CCC(=O)N4C)c(OC)c2)CC1 (stereo not shown) [Example 58] | recombinant Plk1 (Homo sapiens, UniProt P53350) | < 300 nM

###

experimental.system: recombinant Plk1 (Homo sapiens, UniProt P53350)
experimental.protocol: In Vitro Plk1 Enzyme Assay (SPA, GST-Cdc25C phosphorylation)
measurement.conditions: ATP 64 nM, 90 minutes, read-out: IC50 (Plk1 enzyme inhibition)
reported.property: IC50

compound | measured.value
Cc1ccc(Oc2ccccc2Nc2ncc3c(n2)N(C2CCCC2)CCC(=O)N3C)cc1 | < 100000 nM
COc1cc(C(=O)NC2CCN(C)CC2)c(Cl)cc1Nc1ncc2c(n1)N(C1CCCC1)CCC(=O)N2C | < 300 nM
COc1cc(C(=O)NCCCCn2ccnc2)ccc1Nc1ncc2c(n1)N(C1CCCC1)CCC(=O)N2C | < 1000 nM
COc1ccc(CCNC(C)=O)cc1Nc1ncc2c(n1)N(C1CCCC1)CCC(=O)N2C | < 1000 nM
CN1C(=O)CCN(C2CCCC2)c2nc(Nc3cccc(S(N)(=O)=O)c3)ncc21 | < 300 nM
CN1C(=O)CCN(C2CCCC2)c2nc(Nc3ccccc3O)ncc21 | < 300 nM
CCOc1cc(C(=O)NC2CCN(C)CC2)ccc1Nc1ncc2c(n1)N(C1CCCC1)CCC(=O)N2C | < 1000 nM
CN1CCC(NC(=O)c2ccc(Nc3ncc4c(n3)N(C3CCCC3)CCC(=O)N4C)nc2)CC1 | < 300 nM
COc1cc(C(=O)NC2CCN(C)CC2)ccc1Nc1ncc2c(n1)N(C1CCCC1)C(C)CC(=O)N2C (stereo not shown) | < 300 nM
CN1CCC(NC(=O)c2csc(Nc3ncc4c(n3)N(C3CCCC3)CCC(=O)N4C)n2)CC1 | < 100000 nM
COc1cc(C(=O)NCCCCN(C)C)ccc1Nc1ncc2c(n1)N(C1CCCC1)CCC(=O)N2C | < 300 nM
CCCN1CCC(NC(=O)c2ccc(Nc3ncc4c(n3)N(C3CCCC3)CCC(=O)N4C)c(OC)c2)CC1 | < 300 nM
COc1cc(C(=O)NC2CCN(C)CC2)ccc1Nc1ncc2c(n1)N(C1CCCC1)CCCN2C | < 100000 nM
CCOc1cc(C(=O)N[C@H]2C[C@H]3CCC[C@@H](C2)N3C)ccc1Nc1ncc2c(n1)N(C(C)C)CCC(=O)N2C | < 300 nM
CCN1CCC(NC(=O)c2cc(Cl)c(Nc3ncc4c(n3)N(C3CCCC3)CCC(=O)N4C)cc2F)CC1 | < 1000 nM
COc1cc(C(=O)NC2CCN(C)CC2)ccc1Nc1ncc2c(n1)N(c1ccccc1)CCC(=O)N2 | < 100000 nM
COc1cc(C(=O)NC2CCNCC2)ccc1Nc1ncc2c(n1)N(C1CCCC1)CCC(=O)N2C | < 300 nM
COc1cc(OCCN2CCOCC2)ccc1Nc1ncc2c(n1)N(C1CCCC1)CCC(=O)N2C | < 1000 nM
CCN1CCC(NC(=O)c2ccc(Nc3ncc4c(n3)N(C3CCCC3)CC3(CC3)C(=O)N4C)c(OC)c2)CC1 | < 1000 nM
COc1cc(C(=O)NC2CCN(C)CC2)ccc1Nc1ncc2c(n1)N(Cc1ccccc1)CCC(=O)N2C | < 1000 nM
CCOc1cc(C(=O)NC2CCN(C)CC2)ccc1Nc1ncc2c(n1)N(C(C)C)CCC(=O)N2C | < 300 nM
COc1cc(C(=O)N[C@@H]2CCN(C(=O)OC(C)(C)C)C2)ccc1Nc1ncc2c(n1)N(C1CCCC1)CCC(=O)N2C | < 1000 nM
CN1C(=O)CCN(C2CCCC2)c2nc(Nc3ccc(CNC(=O)c4ccccn4)cc3)ncc21 | < 100000 nM
COc1cc(C(=O)NC2CCN(C)CC2)ccc1Nc1ncc2c(n1)N(C1CCOCC1)CCC(=O)N2C | < 300 nM
CN1CCC(NC(=O)c2ccc(Nc3ncc4c(n3)N(c3ccccc3)CCC(=O)N4C)cc2)CC1 | < 300 nM
COc1cc(C(=O)N[C@@H]2CC[C@H](C(=O)N(C)C)C2)ccc1Nc1ncc2c(n1)N(C1CCCC1)CCC(=O)N2C | < 100000 nM
COc1cc(C(=O)NC2CCN(C)CC2)ccc1Nc1ncc2c(n1)N(C)CCC(=O)N2C | < 300 nM
COc1cc(C(=O)O)ccc1Nc1ncc2c(n1)N(C1CCCC1)CCC(=O)N2C | < 300 nM
COc1cc(C(=O)NCCN2CCCCC2)ccc1Nc1ncc2c(n1)N(C(C)C)CCC(=O)N2C | < 100000 nM
CN1C(=O)CCN(C2CCCC2)c2nc(Nc3ccc4[nH]c(-c5cccnc5)nc4c3)ncc21 | < 1000 nM
COc1cc(C(=O)NCC2CC2)ccc1Nc1ncc2c(n1)N(C1CCCC1)CCC(=O)N2C | < 100000 nM
